Origin of the recorded values: paper PMC9828538

# Test system: Giardia duodenalis trophozoites (BAH2c2 strain)
# PROCEDURE SUMMARY: Resazurin reduction assay on Giardia trophozoites in vitro
# Assay type: cell-based
# DETAILS: 24 h; read-out: Antigiardial activity IC50 (24 h)
READOUT KIND: IC50 (nM)
One number for each entry, in nM.

Challenge: So what does the record say about IC50 for `CN(C)c1ccc(C=NN=C(N)NN=Cc2ccc(N(C)C)cc2)cc1` ?
Response given: 1100

====

# Tested on: Giardia duodenalis trophozoites (BAH2c2 strain)
# PROCEDURE SUMMARY: Resazurin reduction assay on Giardia trophozoites in vitro
# Type: cell-based
# DETAILS: Giardia duodenalis, 24 h; read-out: Antigiardial activity IC50 (24 h)
Lab note: compare IC50 with 4000 nM, writing 1 if less and -1 if equal or more.

- N=C(NN=Cc1ccccc1O)NN=Cc1ccccc1O [Compound 29]: -1

Switching to the query record.
Challenge: Determine if CSc1ccc(C=NNC(=N)NN=Cc2ccc(SC)cc2)cc1 [Compound 31] shows IC50 strictly lower than 4000 nM.
Response given: 1

====

Kindly state Selectivity ratio for each of the entries shown.
# Test system: Giardia duodenalis trophozoites (BAH2c2 strain)
# PROCEDURE SUMMARY: Resazurin reduction assay on Giardia trophozoites in vitro
# Type: cell-based
# DETAILS: higher ratios = more selective; toxicity tested at 25 μM vs 5 h IC50; Table 4

# example entries with known answers
- Cl.N=C(NN=Cc1ccc(Cl)cc1Cl)NN=Cc1ccc(Cl)cc1Cl: >10.0
- COc1cc(C=NNC(=N)NN=Cc2cc(Br)c(OC)c(OC)c2)cc(Br)c1OC.Cl: >9.3
- COc1cc(Br)c(C=NNC(=N)NN=Cc2cc(OC)c(OC)cc2Br)cc1OC.Cl: >125

We next turn to a different molecule, shown below.
Challenge: So what does the record say about Selectivity ratio for `CC(=O)Nc1cc(Cl)ccc1C=NNC(=N)NN=Cc1ccc(Cl)cc1NC(C)=O.Cl` ?
Response given: >31.3

====

# Test system: Giardia duodenalis trophozoites (BAH2c2 strain)
# PROCEDURE SUMMARY: Resazurin reduction assay on Giardia trophozoites in vitro
# Assay type: cell-based
# DETAILS: Giardia duodenalis, 24 h; read-out: Antigiardial activity IC50 (24 h)
Lab note: compare IC50 with 900 nM, writing Fulfilled if less and Not fulfilled if equal or more.

* CCCc1ccc(C=NNC(=N)NN=Cc2ccc(CCC)cc2)cc1 | Fulfilled
* N=C(NN=Cc1cccc(F)c1)NN=Cc1cccc(F)c1 | Not fulfilled
* Cl.N=C(NN=Cc1ccccc1-c1ccccc1)NN=Cc1ccccc1-c1ccccc1 | Not fulfilled

Switching to the query record.
Challenge: Determine if `C#Cc1cccc(C=NNC(=N)NN=Cc2cccc(C#C)c2)c1` shows IC50 strictly lower than 900 nM.
Response given: Not fulfilled

====

Kindly state Toxicity (% growth control) for each of the entries shown.
# System: CaCo-2 cells
# DETAILS: human, 24 h, 25 μM
One number for each entry, in %.

- Cl.N=C(N/N=C/c1ccc(Cl)cc1)N/N=C/c1ccc(Cl)cc1 [Robenidine 4, robenidine, reference compound]: 40.7
- CC(=O)Nc1cc(Cl)ccc1C=NNC(=N)NN=Cc1ccc(Cl)cc1NC(C)=O.Cl [Compound 40]: 83.1
- Cl.N=C(NN=Cc1ccccc1Br)NN=Cc1ccccc1Br [Compound 11]: 79.1
- Cl.N=C(NN=Cc1ccccc1-c1ccccc1)NN=Cc1ccccc1-c1ccccc1 [Compound 18]: 75.4

We next turn to a different compound, shown below.
Challenge: So what does the record say about Toxicity (% growth control) for Cl.N=C(NN=Cc1ccc(Br)cc1)NN=Cc1ccc(Br)cc1 [Compound 6] ?
Response given: 97.1

====

# Test system: Giardia duodenalis trophozoites (BAH2c2 strain)
# PROCEDURE SUMMARY: Resazurin reduction assay on Giardia trophozoites in vitro
# Type: cell-based
# DETAILS: Giardia duodenalis, 24 h; read-out: Antigiardial activity IC50 (24 h)
READOUT KIND: IC50 (nM)
Answers are plain numbers, in nM.

# example entries with known answers
* CC(C)c1ccc(C=NNC(=N)NN=Cc2ccc(C(C)C)cc2)cc1 | 1900
* CCCCc1ccc(C=NNC(=N)NN=Cc2ccc(CCCC)cc2)cc1 | 1900
* N=C(NN=Cc1ccc(-c2ccccc2)cc1)NN=Cc1ccc(-c2ccccc2)cc1 | 400
* Cc1cccc(C=NNC(=N)NN=Cc2cccc(C)c2)c1 | 4900
* COc1ccc(C=NNC(=N)NN=Cc2ccc(OC)cc2)cc1.Cl | 5990

Give me IC50 for each of these molecules, listed below.
1. Cl.N=C(NN=Cc1ccccc1Br)NN=Cc1ccccc1Br
2. Cl.N=C(NN=Cc1ccc(Br)cc1)NN=Cc1ccc(Br)cc1
3. Cc1ncc([N+](=O)[O-])n1CCO [Metronidazole, metronidazole, reference compound]
4. N=C(NN=Cc1cccc(Br)c1)NN=Cc1cccc(Br)c1
5. N=C(NN=Cc1ccc(SC(F)(F)F)cc1)NN=Cc1ccc(SC(F)(F)F)cc1
6. CC(C)(C)c1ccc(C=NNC(=N)NN=Cc2ccc(C(C)(C)C)cc2)cc1
7. N=C(NN=Cc1cccc(Cl)c1)NN=Cc1cccc(Cl)c1

Response given:
800
1700
3800
2900
200
3200
3500

====

# Test system: Giardia duodenalis trophozoites (BAH2c2 strain)
# PROCEDURE SUMMARY: Resazurin reduction assay on Giardia trophozoites in vitro
# Type: cell-based
# DETAILS: Giardia duodenalis, 24 h; read-out: Antigiardial activity IC50 (24 h)
READOUT KIND: pIC50
One number for each entry, as −log10 of the molar value.

• N=C(NN=Cc1ccc(F)cc1)NN=Cc1ccc(F)cc1 = 5.19
• Cl.N=C(NN=Cc1ccccc1Cl)NN=Cc1ccccc1Cl = 4.91

Give me pIC50 for each of these compounds, listed below.
1. Cl.N=C(N/N=C/c1ccc(Cl)cc1)N/N=C/c1ccc(Cl)cc1 [Robenidine 4, robenidine, reference compound]
2. N=C(NN=Cc1ccc(OC(F)(F)F)cc1)NN=Cc1ccc(OC(F)(F)F)cc1

Response given:
1. 6.05
2. 6.70

====

# System: Giardia duodenalis trophozoites (BAH2c2 strain)
# PROCEDURE SUMMARY: Resazurin reduction assay on Giardia trophozoites in vitro
# Assay type: cell-based
# DETAILS: Giardia duodenalis, 24 h; read-out: Antigiardial activity IC50 (24 h)
pIC50: −log10 of the molar value.
Kindly state pIC50 for each of the entries shown.

# example entries with known answers
• N=C(NN=Cc1cccc(O)c1)NN=Cc1cccc(O)c1 [Compound 28] = < 4.60
• COc1cccc(C=NNC(=N)NN=Cc2cccc(OC)c2)c1 [Compound 25] = < 4.60

We next turn to a different molecule, shown below.
Challenge: So what does the record say about pIC50 for Cl.N=C(NN=Cc1ccccc1F)NN=Cc1ccccc1F [Compound 13] ?
Response given: < 4.60
